Molecular target: Recombinant human HDAC2 (Homo sapiens, UniProt Q92769)
Construct: purchased BPS Biosciences
Sequence (Q92769 whole entry): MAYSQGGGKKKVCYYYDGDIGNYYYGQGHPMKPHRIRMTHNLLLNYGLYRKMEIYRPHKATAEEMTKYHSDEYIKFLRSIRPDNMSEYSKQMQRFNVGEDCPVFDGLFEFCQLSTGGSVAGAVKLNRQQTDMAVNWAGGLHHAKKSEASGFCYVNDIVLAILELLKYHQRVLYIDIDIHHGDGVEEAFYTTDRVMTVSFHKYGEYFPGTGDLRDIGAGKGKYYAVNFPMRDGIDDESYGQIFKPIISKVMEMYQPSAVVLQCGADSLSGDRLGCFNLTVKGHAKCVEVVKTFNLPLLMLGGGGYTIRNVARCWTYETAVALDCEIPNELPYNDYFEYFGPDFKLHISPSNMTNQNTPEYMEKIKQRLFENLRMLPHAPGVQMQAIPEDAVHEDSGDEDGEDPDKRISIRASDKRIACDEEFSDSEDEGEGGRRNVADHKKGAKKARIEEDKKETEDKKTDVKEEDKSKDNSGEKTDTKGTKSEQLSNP
Assay: HDAC inhibitory assay, HDAC2 (Boc-Lys(Ac)-AMC substrate)
Type: biochemical
Conditions: test concentration not given; average of triplicate
Where a name gives a salt, the structure may show the parent alone.
PROPERTY_NAME: HDAC 2 inhibitory activity (%)
One number for each entry, in %.

These solved cases illustrate the format of a correct answer.
> print(dat)
                                    compound               property.name  reported.measurement
 1  O=C(NCCc1c[nH]c2ccccc12)c1coc(-c2ccccc2O)n1 [Example 8]  HDAC 2 inhibitory activity                  36.0
 2  O=C(NCCCCNC(=O)C(c1ccccc1)c1ccccc1)c1coc(-c2ccccc2O)n1 [Example 10]  HDAC 2 inhibitory activity                     0
 3  O=C(Nc1ccc(-c2ccccc2)cc1)c1coc(-c2ccccc2O)n1 [Example 5]  HDAC 2 inhibitory activity                  31.9
 4  O=C(CNC(=O)c1coc(-c2ccccc2O)n1)Nc1ccccc1 [Example 16]  HDAC 2 inhibitory activity                  32.0
 5  O=C(NCC(c1ccccc1)c1ccccc1)c1coc(-c2ccccc2O)n1 [Example 3]  HDAC 2 inhibitory activity                  34.8
 6  O=C(Nc1ccccc1)c1coc(-c2ccccc2O)n1 [Example 1]  HDAC 2 inhibitory activity                  29.5
 7  O=C(NC(c1ccccc1)c1ccccc1)c1coc(-c2ccccc2O)n1 [Example 2]  HDAC 2 inhibitory activity                  54.1
 8  O=C(NCCCCNC(=S)NCCC(c1ccccc1)c1ccccc1)c1coc(-c2ccccc2O)n1 [Example 11]  HDAC 2 inhibitory activity                   1.3
 9  O=C(Nc1ccccc1)c1ccc(CNC(=O)c2coc(-c3ccccc3O)n2)cc1 [Example 15]  HDAC 2 inhibitory activity                  41.3
10  O=C(NCCCCN1C(=O)c2ccccc2C1=O)c1coc(-c2ccccc2O)n1 [Example 9]  HDAC 2 inhibitory activity                  25.4

Hi there! I need HDAC 2 inhibitory activity for each item below, if you can.
1. O=C(NCc1cccc2ccccc12)c1coc(-c2ccccc2O)n1 [Example 7]
2. O=C(NCCCCNCCC(c1ccccc1)c1ccccc1)c1coc(-c2ccccc2O)n1 [Example 12, hydrochloride]
3. O=C(O)c1ccc(CNC(=O)c2coc(-c3ccccc3O)n2)cc1 [Example 14]
4. O=C(NCCC(c1ccccc1)c1ccccc1)c1coc(-c2ccccc2O)n1 [Example 4]
5. O=C(NCc1ccc(-c2ccccc2)cc1)c1coc(-c2ccccc2O)n1 [Example 6]

1: 45.2; 2: 19.7; 3: 56.5; 4: 28.7; 5: 52.2

----------
Molecular target: Recombinant human HDAC11 (Homo sapiens)
Construct: purchased BPS Biosciences
Sequence (Q96DB2 1-347): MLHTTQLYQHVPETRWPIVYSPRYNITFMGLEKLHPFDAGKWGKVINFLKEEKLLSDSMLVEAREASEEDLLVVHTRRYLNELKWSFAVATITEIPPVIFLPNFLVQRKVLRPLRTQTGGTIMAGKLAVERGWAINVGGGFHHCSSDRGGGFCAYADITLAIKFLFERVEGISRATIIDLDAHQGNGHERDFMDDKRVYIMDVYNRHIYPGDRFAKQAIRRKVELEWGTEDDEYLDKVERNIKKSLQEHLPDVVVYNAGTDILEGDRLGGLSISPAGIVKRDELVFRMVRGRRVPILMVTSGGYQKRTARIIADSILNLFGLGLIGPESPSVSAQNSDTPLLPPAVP
Assay: HDAC inhibitory assay, HDAC11 (Boc-Lys(Tfa)-AMC substrate)
Assay type: biochemical
Conditions: test concentration not given; average of triplicate
Field: HDAC 11 inhibitory activity. Provide a value for each of the molecules that follow.
One number for each entry, in %.

> print(dat)
                            smiles.notation  reported.measurement
1  O=C(NCCCCNC(=O)C(c1ccccc1)c1ccccc1)c1coc(-c2ccccc2O)n1                  30.1
2  O=C(NCCCCN1C(=O)c2ccccc2C1=O)c1coc(-c2ccccc2O)n1                  33.8
3  O=C(O)c1ccc(CNC(=O)c2coc(-c3ccccc3O)n2)cc1                  49.2
4  O=C(Nc1ccccc1)c1ccc(CNC(=O)c2coc(-c3ccccc3O)n2)cc1                  20.1
5         O=C(Nc1ccccc1)c1coc(-c2ccccc2O)n1                  21.8
6  O=C(CNC(=O)c1coc(-c2ccccc2O)n1)Nc1ccccc1                  46.6
7  O=C(NCCCCNC(=S)NCCC(c1ccccc1)c1ccccc1)c1coc(-c2ccccc2O)n1                  69.9
8  O=C(NCc1ccc(-c2ccccc2)cc1)c1coc(-c2ccccc2O)n1                  47.8

Hi there! I need HDAC 11 inhibitory activity for each item below, if you can.
1. O=C(NCC(c1ccccc1)c1ccccc1)c1coc(-c2ccccc2O)n1
2. O=C(Nc1ccc(-c2ccccc2)cc1)c1coc(-c2ccccc2O)n1

[39.5, 28.4]

----------
Biological target: Recombinant human HDAC5 (Homo sapiens)
Construct: purchased BPS Biosciences
Sequence (Q9UQL6 whole entry): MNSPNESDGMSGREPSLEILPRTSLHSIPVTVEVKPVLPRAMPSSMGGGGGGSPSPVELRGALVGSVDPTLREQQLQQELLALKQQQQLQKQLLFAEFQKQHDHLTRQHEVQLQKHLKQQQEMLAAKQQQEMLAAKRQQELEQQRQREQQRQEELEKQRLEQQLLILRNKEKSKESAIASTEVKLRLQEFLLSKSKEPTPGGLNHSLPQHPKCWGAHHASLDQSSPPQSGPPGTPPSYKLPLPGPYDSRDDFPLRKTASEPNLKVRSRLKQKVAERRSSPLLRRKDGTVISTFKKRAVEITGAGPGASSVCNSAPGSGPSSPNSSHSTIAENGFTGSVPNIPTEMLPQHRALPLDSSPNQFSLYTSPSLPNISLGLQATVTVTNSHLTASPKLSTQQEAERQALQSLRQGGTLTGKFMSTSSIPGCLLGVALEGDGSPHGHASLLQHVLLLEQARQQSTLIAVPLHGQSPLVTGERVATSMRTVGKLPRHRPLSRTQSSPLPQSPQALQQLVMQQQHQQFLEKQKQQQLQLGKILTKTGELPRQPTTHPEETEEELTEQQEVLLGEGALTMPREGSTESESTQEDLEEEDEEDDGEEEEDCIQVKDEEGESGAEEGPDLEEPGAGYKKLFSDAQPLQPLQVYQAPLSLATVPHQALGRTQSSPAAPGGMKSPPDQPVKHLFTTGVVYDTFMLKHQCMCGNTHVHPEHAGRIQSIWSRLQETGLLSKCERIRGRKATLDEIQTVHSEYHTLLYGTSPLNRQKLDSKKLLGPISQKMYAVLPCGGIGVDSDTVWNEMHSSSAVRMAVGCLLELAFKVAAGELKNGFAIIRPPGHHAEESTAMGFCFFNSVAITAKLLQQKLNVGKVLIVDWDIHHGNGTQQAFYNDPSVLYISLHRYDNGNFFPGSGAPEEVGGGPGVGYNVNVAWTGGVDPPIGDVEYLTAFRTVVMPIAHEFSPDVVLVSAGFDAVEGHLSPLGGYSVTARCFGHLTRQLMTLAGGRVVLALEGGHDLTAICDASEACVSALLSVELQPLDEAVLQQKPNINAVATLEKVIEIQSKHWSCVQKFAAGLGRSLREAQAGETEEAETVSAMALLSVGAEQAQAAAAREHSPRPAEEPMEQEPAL
Assay: HDAC inhibitory assay, HDAC5 (Boc-Lys(Tfa)-AMC substrate)
Type: biochemical
Settings: test concentration not given; average of triplicate
PROPERTY_NAME: HDAC 5 inhibitory activity (%)
Give bare numbers, in %.

> print(dat)
                            smiles.notation  uom  reported.measurement
1  O=C(NC(c1ccccc1)c1ccccc1)c1coc(-c2ccccc2O)n1    %                  14.9
2  O=C(NCCCCNC(=S)NCCC(c1ccccc1)c1ccccc1)c1coc(-c2ccccc2O)n1    %                  43.5
3  O=C(NCC(c1ccccc1)c1ccccc1)c1coc(-c2ccccc2O)n1    %                     0
4         O=C(Nc1ccccc1)c1coc(-c2ccccc2O)n1    %                   9.3

Hi there! I need HDAC 5 inhibitory activity for each item below, if you can.
1. O=C(CNC(=O)c1coc(-c2ccccc2O)n1)Nc1ccccc1
2. O=C(O)c1ccc(CNC(=O)c2coc(-c3ccccc3O)n2)cc1

12.5
12.6

----------
Target: Recombinant human HDAC8 (Homo sapiens, UniProt Q9BY41)
Construct: purchased BPS Biosciences
Sequence (Q9BY41 whole entry): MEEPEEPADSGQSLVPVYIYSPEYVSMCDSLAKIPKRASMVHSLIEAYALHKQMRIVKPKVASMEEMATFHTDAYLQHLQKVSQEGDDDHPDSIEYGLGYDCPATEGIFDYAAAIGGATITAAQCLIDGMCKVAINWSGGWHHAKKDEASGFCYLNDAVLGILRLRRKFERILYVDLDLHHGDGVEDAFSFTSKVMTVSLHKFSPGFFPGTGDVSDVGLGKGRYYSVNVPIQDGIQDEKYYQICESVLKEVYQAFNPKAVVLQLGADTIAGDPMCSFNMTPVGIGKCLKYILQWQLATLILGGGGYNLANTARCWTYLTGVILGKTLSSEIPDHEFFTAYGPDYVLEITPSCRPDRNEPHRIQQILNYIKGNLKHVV
Experiment: HDAC inhibitory assay, HDAC8 (Ac-RHK(Ac)K(Ac)-AMC substrate)
Type: biochemical
Conditions: test concentration not given; average of triplicate
Structures can show the parent of a compound that is named as a salt.
PROPERTY_NAME: HDAC 8 inhibitory activity (%)
Numbers only, in %.

These solved cases illustrate the format of a correct answer.
> print(dat)
                                   compound               property.name  uom  reported.measurement
1  O=C(NCCc1c[nH]c2ccccc12)c1coc(-c2ccccc2O)n1 [Example 8]  HDAC 8 inhibitory activity    %                   7.7
2  O=C(NCCC(c1ccccc1)c1ccccc1)c1coc(-c2ccccc2O)n1 [Example 4]  HDAC 8 inhibitory activity    %                   7.2
3  O=C(NCc1cccc2ccccc12)c1coc(-c2ccccc2O)n1 [Example 7]  HDAC 8 inhibitory activity    %                  10.6
4  O=C(NCCCCNC(=S)NCCC(c1ccccc1)c1ccccc1)c1coc(-c2ccccc2O)n1 [Example 11]  HDAC 8 inhibitory activity    %                     0
5  O=C(NC(c1ccccc1)c1ccccc1)c1coc(-c2ccccc2O)n1 [Example 2]  HDAC 8 inhibitory activity    %                  23.3

Hi there! I need HDAC 8 inhibitory activity for each item below, if you can.
1. O=C(NCCCCNCCC(c1ccccc1)c1ccccc1)c1coc(-c2ccccc2O)n1 [Example 12, hydrochloride]
2. O=C(Nc1ccccc1)c1ccc(CNC(=O)c2coc(-c3ccccc3O)n2)cc1 [Example 15]

14.0
0

----------
Target: Recombinant human HDAC7 (Homo sapiens, UniProt Q8WUI4)
Construct: purchased Millipore
Sequence (Q8WUI4 whole entry): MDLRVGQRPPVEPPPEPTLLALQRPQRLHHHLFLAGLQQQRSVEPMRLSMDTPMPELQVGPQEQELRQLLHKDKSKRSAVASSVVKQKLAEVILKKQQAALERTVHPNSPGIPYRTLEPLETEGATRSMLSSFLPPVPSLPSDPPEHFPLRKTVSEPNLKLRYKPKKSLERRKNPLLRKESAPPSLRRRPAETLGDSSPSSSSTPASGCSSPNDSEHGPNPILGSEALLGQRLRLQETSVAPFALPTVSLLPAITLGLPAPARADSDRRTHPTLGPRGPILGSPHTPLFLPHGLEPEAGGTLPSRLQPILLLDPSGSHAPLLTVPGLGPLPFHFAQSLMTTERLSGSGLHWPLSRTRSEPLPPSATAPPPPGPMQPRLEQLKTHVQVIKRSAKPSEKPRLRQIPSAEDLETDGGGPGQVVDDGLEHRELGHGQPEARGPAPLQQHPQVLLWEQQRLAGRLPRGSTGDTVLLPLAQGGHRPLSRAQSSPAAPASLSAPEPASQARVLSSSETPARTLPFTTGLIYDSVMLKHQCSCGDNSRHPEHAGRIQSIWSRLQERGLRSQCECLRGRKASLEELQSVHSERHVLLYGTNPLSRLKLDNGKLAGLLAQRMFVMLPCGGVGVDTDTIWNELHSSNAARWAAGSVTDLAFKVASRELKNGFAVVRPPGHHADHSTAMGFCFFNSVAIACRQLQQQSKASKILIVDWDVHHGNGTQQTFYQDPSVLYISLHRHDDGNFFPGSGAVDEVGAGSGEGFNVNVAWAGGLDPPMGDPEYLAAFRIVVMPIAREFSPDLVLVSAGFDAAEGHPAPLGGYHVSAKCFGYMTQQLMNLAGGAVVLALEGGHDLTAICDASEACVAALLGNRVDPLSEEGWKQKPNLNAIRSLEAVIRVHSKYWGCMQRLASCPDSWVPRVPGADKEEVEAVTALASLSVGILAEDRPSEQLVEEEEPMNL
Assay: HDAC inhibitory assay, HDAC7 (Boc-Lys(Tfa)-AMC substrate)
Format: biochemical
Settings: test concentration not given; average of triplicate
PROPERTY_NAME: HDAC 7 inhibitory activity (%)
Give bare numbers, in %.

These solved cases illustrate the format of a correct answer.
> print(dat)
                            smiles.notation               property.name  uom  reported.measurement
1  O=C(O)c1ccc(CNC(=O)c2coc(-c3ccccc3O)n2)cc1  HDAC 7 inhibitory activity    %                   9.3
2  O=C(CNC(=O)c1coc(-c2ccccc2O)n1)Nc1ccccc1  HDAC 7 inhibitory activity    %                     0
3  O=C(NC(c1ccccc1)c1ccccc1)c1coc(-c2ccccc2O)n1  HDAC 7 inhibitory activity    %                   9.2

What value of HDAC 7 inhibitory activity has been reported for the following compound? `O=C(NCC(c1ccccc1)c1ccccc1)c1coc(-c2ccccc2O)n1`
4.1
